Measured values drawn from patent EP0335369A2 for this set.

Field: solubility. Provide a value for each of the compounds that follow.
Assay: Solubility in phosphate buffer solution of pH 7.4 at room temperature
Format: physicochemical
Conditions: aqueous buffer; compounds (I'-c) or (I'-d); phosphate buffer solution of pH 7.4 (0.05M KH2PO4-NaOH), room temperature; read-out: Solubility
One number for each entry, in µg/mL.

{"columns": ["smiles.data", "solubility [µg/mL]"],
 "data": [
  ["C[C@@H]1O[C@@H](O[C@H]2C[C@](O)(C(=O)COC(=O)CCCC(=O)O)Cc3c(O)c4c(c(O)c32)C(=O)c2ccccc2C4=O)[C@H](F)[C@H](O)[C@@H]1O", 10000]
]}

Query compound follows.
C[C@@H]1O[C@@H](O[C@H]2C[C@](O)(C(=O)COC(=O)CCCCC(=O)O)Cc3c(O)c4c(c(O)c32)C(=O)c2ccccc2C4=O)[C@H](F)[C@H](O)[C@@H]1O yielded solubility of 6000
